# target.system: 20S proteasome (Homo sapiens) (UniProt P49721+P20618+P28074+P28062+P28065+P28072+P25786+P25787+P25788+P25789+P28066+P60900+O14818+Q8TAA3+P40306+A5LHX3+P49720+P28070+Q99436)
# test.name: Activation of human 20S proteosome assessed as substrate degradation using Suc-LLVY-AMC/Z-LLE-AMC/Boc-LLR-AMC as flurogenic substrate preincubated for 15 mins followed by substrate addition and measured after 1 hr by spectrometric analysis
# Assay type: protein-complex assay
# settings: filed as activator
experimental.readout: log10(EC200) (log10 of the value in µM)

query.smiles	experimental.readout	meas.value
COc1cccc(CN2c3ccccc3Sc3ccc(Cl)cc32)c1	log10(EC200)	0.18
O=[N+]([O-])c1cccc(CN2c3ccccc3Sc3ccc(Cl)cc32)c1	log10(EC200)	0.04
Clc1ccc2c(c1)N(Cc1ccccc1)c1ccccc1S2	log10(EC200)	0.18
COC(=O)c1ccc(CN2c3ccccc3Sc3ccc(Cl)cc32)cc1	log10(EC200)	0.15
O=C(CCN1c2ccccc2Sc2ccc(Cl)cc21)N(c1ccc(F)cc1)c1ccc(F)cc1	log10(EC200)	-0.40
COC(=O)c1cccc(CN2c3ccccc3Sc3ccc(Cl)cc32)c1	log10(EC200)	0.38
O=C(CCN1c2ccccc2Sc2ccc(Cl)cc21)Nc1ccccc1	log10(EC200)	1.60
Nc1cccc(CN2c3ccccc3Sc3ccc(Cl)cc32)c1	log10(EC200)	0.56
CN(C)CCCN1c2ccccc2Sc2ccc(Cl)cc21	log10(EC200)	1.13

---

# target.system: 20S proteasome (Homo sapiens) (UniProt P49721+P20618+P28074+P28062+P28065+P28072+P25786+P25787+P25788+P25789+P28066+P60900+O14818+Q8TAA3+P40306+A5LHX3+P49720+P28070+Q99436)
# test.name: Activation of human 20S proteosome at caspase-like site assessed as substrate degradation using Z-LLE-AMC as flurogenic substrate preincubated for 15 mins followed by substrate addition and measured after 1 hr by spectrometric analysis
# Assay type: protein-complex assay
# settings: filed as activator

query.smiles	EC200, µM
Nc1cccc(CN2c3ccccc3Sc3ccc(Cl)cc32)c1	3.8
COC(=O)c1cccc(CN2c3ccccc3Sc3ccc(Cl)cc32)c1	9.7
COC(=O)c1ccc(CN2c3ccccc3Sc3ccc(Cl)cc32)cc1	2.7
COc1cccc(CN2c3ccccc3Sc3ccc(Cl)cc32)c1	1.3
O=[N+]([O-])c1cccc(CN2c3ccccc3Sc3ccc(Cl)cc32)c1	1.2
O=C(CCN1c2ccccc2Sc2ccc(Cl)cc21)N(c1ccc(F)cc1)c1ccc(F)cc1	1.8

---

# target.system: 20S proteasome (Homo sapiens) (UniProt P49721+P20618+P28074+P28062+P28065+P28072+P25786+P25787+P25788+P25789+P28066+P60900+O14818+Q8TAA3+P40306+A5LHX3+P49720+P28070+Q99436)
# test.name: Activation of human 20S proteosome at caspase-like site assessed as substrate degradation using Z-LLE-AMC as flurogenic substrate preincubated for 15 mins followed by substrate addition and measured after 1 hr by spectrometric analysis
# Assay type: protein-complex assay

query.smiles	EC200
O=C(CCN1c2ccccc2Sc2ccc(Cl)cc21)Nc1ccccc1	> 80 µM
CN(C)C(=O)CCN1c2ccccc2Sc2ccc(Cl)cc21	> 80 µM
CC(C)(C)OC(=O)c1ccc(CN2c3ccccc3Sc3ccc(Cl)cc32)cc1	> 80 µM
CN(C(=O)CCN1c2ccccc2Sc2ccc(Cl)cc21)c1ccc(F)cc1	> 80 µM
NC(=O)CCCCN1c2ccccc2Sc2ccc(Cl)cc21	> 80 µM
Oc1ccc(CN2c3ccccc3Sc3ccc(Cl)cc32)cc1	> 80 µM
CN(C)CCCN1c2ccccc2Sc2ccc(Cl)cc21	> 80 µM
CC(=O)Oc1ccc(CN2c3ccccc3Sc3ccc(Cl)cc32)cc1	> 80 µM
N#CCCCCN1c2ccccc2Sc2ccc(Cl)cc21	> 80 µM
Clc1ccc2c(c1)N(Cc1ccccc1)c1ccccc1S2	> 80 µM

---

# target.system: 20S proteasome (Homo sapiens) (UniProt P49721+P20618+P28074+P28062+P28065+P28072+P25786+P25787+P25788+P25789+P28066+P60900+O14818+Q8TAA3+P40306+A5LHX3+P49720+P28070+Q99436)
# test.name: Activation of human 20S proteosome at caspase-like site assessed as maximum fold change in substrate degradation using Z-LLE-AMC as flurogenic substrate preincubated for 15 mins followed by substrate addition and measured after 1 hr by spectrometric analysis relative to control
# Type: protein-complex assay
# settings: filed as activator
So basically: is fold change (FC) under 10? Then Met. Not under? Then Not met.

query.smiles	discrete.label
COC(=O)c1cccc(CN2c3ccccc3Sc3ccc(Cl)cc32)c1	Met
O=C(CCN1c2ccccc2Sc2ccc(Cl)cc21)N(c1ccc(F)cc1)c1ccc(F)cc1	Met
COC(=O)c1ccc(CN2c3ccccc3Sc3ccc(Cl)cc32)cc1	Met
COc1cccc(CN2c3ccccc3Sc3ccc(Cl)cc32)c1	Met
O=[N+]([O-])c1cccc(CN2c3ccccc3Sc3ccc(Cl)cc32)c1	Not met

---

# target.system: 20S proteasome (Homo sapiens) (UniProt P49721+P20618+P28074+P28062+P28065+P28072+P25786+P25787+P25788+P25789+P28066+P60900+O14818+Q8TAA3+P40306+A5LHX3+P49720+P28070+Q99436)
# test.name: Activation of human 20S proteosome assessed as maximum fold change in substrate degradation using Suc-LLVY-AMC/Z-LLE-AMC/Boc-LLR-AMC as flurogenic substrate preincubated for 15 mins followed by substrate addition and measured after 1 hr by spectrometric analysis relative to control
# Assay type: protein-complex assay
# settings: filed as activator
Items are presented alongside their recorded fold change (FC).

query.smiles	fold change (FC)
O=C(CCN1c2ccccc2Sc2ccc(Cl)cc21)Nc1ccccc1	2.5
Nc1cccc(CN2c3ccccc3Sc3ccc(Cl)cc32)c1	8
O=C(CCN1c2ccccc2Sc2ccc(Cl)cc21)N(c1ccc(F)cc1)c1ccc(F)cc1	11

---

# target.system: 20S proteasome (Homo sapiens) (UniProt P49721+P20618+P28074+P28062+P28065+P28072+P25786+P25787+P25788+P25789+P28066+P60900+O14818+Q8TAA3+P40306+A5LHX3+P49720+P28070+Q99436)
# test.name: Activation of human 20S proteosome assessed as maximum fold change in substrate degradation using Suc-LLVY-AMC/Z-LLE-AMC/Boc-LLR-AMC as flurogenic substrate preincubated for 15 mins followed by substrate addition and measured after 1 hr by spectrometric analysis relative to control
# Type: protein-complex assay
# settings: filed as activator
experimental.readout: fold change (FC)

query.smiles	meas.value
COC(=O)c1ccc(CN2c3ccccc3Sc3ccc(Cl)cc32)cc1	9
Clc1ccc2c(c1)N(Cc1ccccc1)c1ccccc1S2	2
O=[N+]([O-])c1cccc(CN2c3ccccc3Sc3ccc(Cl)cc32)c1	8
COc1cccc(CN2c3ccccc3Sc3ccc(Cl)cc32)c1	4
COC(=O)c1cccc(CN2c3ccccc3Sc3ccc(Cl)cc32)c1	6
CN(C)CCCN1c2ccccc2Sc2ccc(Cl)cc21	4

---

Let's look at some molecules and their measured fold change (FC).
# target.system: 20S proteasome (Homo sapiens) (UniProt P49721+P20618+P28074+P28062+P28065+P28072+P25786+P25787+P25788+P25789+P28066+P60900+O14818+Q8TAA3+P40306+A5LHX3+P49720+P28070+Q99436)
# test.name: Activation of human 20S proteosome at chymotrypsin like site assessed as maximum fold change in substrate degradation using Suc-LLVY-AMC as flurogenic substrate preincubated for 15 mins followed by substrate addition and measured after 1 hr by spectrometric analysis relative to control
# Assay type: protein-complex assay
# settings: filed as activator

query.smiles	fold change (FC)
COC(=O)c1cccc(CN2c3ccccc3Sc3ccc(Cl)cc32)c1	6
O=[N+]([O-])c1cccc(CN2c3ccccc3Sc3ccc(Cl)cc32)c1	9
CN(C)CCCN1c2ccccc2Sc2ccc(Cl)cc21	8
Clc1ccc2c(c1)N(Cc1ccccc1)c1ccccc1S2	3
Nc1cccc(CN2c3ccccc3Sc3ccc(Cl)cc32)c1	9
COC(=O)c1ccc(CN2c3ccccc3Sc3ccc(Cl)cc32)cc1	1.2
O=C(CCN1c2ccccc2Sc2ccc(Cl)cc21)N(c1ccc(F)cc1)c1ccc(F)cc1	9.4

---

# target.system: 20S proteasome (Homo sapiens) (UniProt P49721+P20618+P28074+P28062+P28065+P28072+P25786+P25787+P25788+P25789+P28066+P60900+O14818+Q8TAA3+P40306+A5LHX3+P49720+P28070+Q99436)
# test.name: Activation of human 20S proteosome at trypsin-like site assessed as substrate degradation using Boc-LLR-AMC as flurogenic substrate preincubated for 15 mins followed by substrate addition and measured after 1 hr by spectrometric analysis
# Format: protein-complex assay
# settings: filed as activator

query.smiles	EC200 (µM)
COC(=O)c1ccc(CN2c3ccccc3Sc3ccc(Cl)cc32)cc1	2.6
O=C(CCN1c2ccccc2Sc2ccc(Cl)cc21)N(c1ccc(F)cc1)c1ccc(F)cc1	0.3
Nc1cccc(CN2c3ccccc3Sc3ccc(Cl)cc32)c1	9.2
O=C(CCN1c2ccccc2Sc2ccc(Cl)cc21)Nc1ccccc1	80
COC(=O)c1cccc(CN2c3ccccc3Sc3ccc(Cl)cc32)c1	1.9
COc1cccc(CN2c3ccccc3Sc3ccc(Cl)cc32)c1	5.4
O=[N+]([O-])c1cccc(CN2c3ccccc3Sc3ccc(Cl)cc32)c1	1.6
Clc1ccc2c(c1)N(Cc1ccccc1)c1ccccc1S2	3.1

Numbers sourced from ChEMBL document CHEMBL5154893.
